I'd be grateful if you could share measured Binding of serum SARS-yellow to looped/cyclic peptides of protein N of SARS-CoV Urbani for these entries.
Test system: antibodies in sera from SARS patients (sera 1a, 1b, 2, 6, 37, 62, London, SARS-yellow, SARS-green)
Format: binding, human
Numbers only.

Worked cases, answers included:
YHGAIKLDDKDPQFK | 0.1
IRQGTDYKHWPQIAQ | 0.4

Working through the 4 sequences below one at a time, give Binding of serum SARS-yellow to looped/cyclic peptides of protein N of SARS-CoV Urbani for each.
1. VTPSGTWLTYHGAIK
2. KVSGKGQQQQGQTVT
3. GARPKQRRPQGLPNN
4. SDNGPQSNQRSAPRI

Data returned:
0.2
0.3
0.2
0.1

Batch request: Binding of serum SARS-yellow to looped/cyclic peptides of protein N of SARS-CoV Urbani per item, same order as input.
1. NSRNSTPGSSRGNSP
2. SGKGQQQQGQTVTKK
3. KTDEAQPLPQRQKKQ
4. VSGKGQQQQGQTVTK

Data returned:
[0.3, 0.3, 0.5, 0.6]

Values were extracted from patent US20070128217A1.
